# Read-out: Monokine induced gamma interferon (MIG), CXCL9 (gene 4283)
# Method notes: BSK_hDFCGF_MIG: BioMAP Diversity Plus: hDFCGF Assay for Monokine induced gamma interferon (MIG) Biomarker Activity (AID 2283063)
# Condition set: primary human foreskin fibroblasts; actives raise or lower the signal
Calls of active or inactive are those of the source. Rule for the calls: active = hit-call score of the fitted dose curve at least 0.9, where 1 is the maximum; inactive = score below 0.9.
Measurement kind: outcome

>>> result("COC(=O)c1ccc(C)cc1")
"inactive"
>>> result("O=C(O)c1cn(C2CC2)c2cc(N3CCNCC3)c(F)cc2c1=O")
"inactive"
>>> result("CCC(=O)OCc1ccccc1")
"inactive"

###

# Method notes: ATG_TAL_CIS: Attagene CIS-FACTORIAL HepG2 Assay for human TAL Basal Promoter (AID 2282966);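 note: background control endpoint measuring basal TAL promoter reporter mRNA not a specific factor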
# Condition set: HepG2 Attagene cis-factorial TAL promoter reporter; actives raise or lower the signal
Active and inactive are the calls of the source. Rule for the calls: active = hit-call score of the fitted dose curve at least 0.9, where 1 is the maximum; inactive = score below 0.9.
Classes used: active, inactive

>>> answer_label("CCCCCCCCCCCCSC")
"inactive"
>>> answer_label("Clc1nc(C(Cl)(Cl)Cl)c(Cl)c(Cl)c1Cl")
"active"
>>> answer_label("CCOc1ccccc1OCC")
"inactive"
>>> answer_label("CCC(=O)/C=C/C1C(C)=CCCC1(C)C (stereo not drawn)")
"inactive"
>>> answer_label("Nc1cc([N+](=O)[O-])ccc1O")
"inactive"
>>> answer_label("O=C(O)CCCCCCCCCCC(=O)O")
"inactive"
>>> answer_label("Clc1cccc(Cl)n1")
"inactive"
>>> answer_label("COC(=O)Cc1cccc2ccccc12")
"inactive"
